The measured values listed here are drawn from patent US7855230B2.

Entries and their IC50 values follow.
Molecular target: human muscarinic M3 receptor (Homo sapiens)
Sequence (P20309 whole entry): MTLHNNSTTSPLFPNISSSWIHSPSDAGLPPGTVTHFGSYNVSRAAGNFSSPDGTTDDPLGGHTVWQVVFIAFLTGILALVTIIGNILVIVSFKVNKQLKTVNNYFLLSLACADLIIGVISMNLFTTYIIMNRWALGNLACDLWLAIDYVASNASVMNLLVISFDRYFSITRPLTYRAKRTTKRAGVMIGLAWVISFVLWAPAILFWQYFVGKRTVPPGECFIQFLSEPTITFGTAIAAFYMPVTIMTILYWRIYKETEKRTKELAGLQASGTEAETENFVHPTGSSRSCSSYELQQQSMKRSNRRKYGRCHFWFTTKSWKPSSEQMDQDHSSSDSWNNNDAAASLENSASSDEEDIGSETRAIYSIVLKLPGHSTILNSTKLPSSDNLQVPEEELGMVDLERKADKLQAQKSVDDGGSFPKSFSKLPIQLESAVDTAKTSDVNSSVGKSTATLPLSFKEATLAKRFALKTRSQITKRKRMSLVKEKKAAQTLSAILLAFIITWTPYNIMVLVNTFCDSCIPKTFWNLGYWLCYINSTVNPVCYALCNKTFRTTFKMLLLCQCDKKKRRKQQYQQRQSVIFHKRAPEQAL
Experiment: [3H]-methylscopolamine binding to recombinant human M3 receptors
Settings: BSR-M3H cell membranes, 60 minutes at 25° C.
Outcome Measure: IC50

[[record]]
molecule = "CC(=O)OCc1ccc(OC(=O)C(C)C)c(C(CCN(C(C)C)C(C)C)c2ccccc2)c1 (racemic)"
endpoint_result = "3.6 µM"

[[record]]
molecule = "CC(C)N(CC[C@H](c1ccccc1)c1cc(CO)ccc1OC(=O)c1ccccc1)C(C)C [(+)HO-/-OBz]"
endpoint_result = "0.172 µM"

[[record]]
molecule = "CC(C)C(=O)Oc1ccc(CO)cc1[C@H](CCN(C(C)C)C(C)C)c1ccccc1 [(+)HO-/-OiBut]"
endpoint_result = "0.159 µM"

[[record]]
molecule = "CC(C)N(CC[C@@H](c1ccccc1)c1cc(CO)ccc1O)C(C)C [(−)HO-/-OH, reference compound]"
endpoint_result = "1.3 µM"


====

Examples of molecules with documented Flux rate follow.
Assay: Penetration through human skin, flow through cell
Type: in vitro ADME
Details: human skin 200 μm thick, 32° C., acceptor phosphate buffer pH 6.2
Outcome Measure: Flux rate (μg/cm^2/24 hrs)

[[record]]
molecule = "CC(C)N(CCC(c1ccccc1)c1cc(CO)ccc1O)C(C)C (racemic) [HO-/-OH, reference compound]"
endpoint_result = 3

[[record]]
molecule = "CC(C)C(=O)OCc1ccc(OC(=O)C(C)C)c(C(CCN(C(C)C)C(C)C)c2ccccc2)c1 (racemic)"
endpoint_result = 60

[[record]]
molecule = "CCC(=O)OCc1ccc(OC(=O)CC)c(C(CCN(C(C)C)C(C)C)c2ccccc2)c1 (racemic)"
endpoint_result = 70

[[record]]
molecule = "CC(C)C(=O)Oc1ccc(CO)cc1C(CCN(C(C)C)C(C)C)c1ccccc1 (racemic)"
endpoint_result = 150

